Overview of recorded IC50 for various molecules
- Test system: prostate cancer cells PC-3
- Assay Method Text: Antiproliferative activity, CCK-8 assay, PC-3
- Assay type: cell-based
- Particulars: Homo sapiens; CCK-8, 72 hours; mean ± SD
Numbers only here, please. The scale is µM.

Solved entries (count: 5):
C[C@H]1COc2c(N3CCN(C)CC3)c(F)cc3c(=O)c(C(=O)NCc4cn(CCCCCC(=O)NO)nn4)cn1c23 9.6
C[C@H]1COc2c(N3CCN(C)CC3)c(F)cc3c(=O)c(C(=O)NCc4cn(CCCCCCC(=O)NO)nn4)cn1c23 4.9
C[C@H]1COc2c(N3CCN(C)CC3)c(F)cc3c(=O)c(C(=O)OCc4cn(CCCCCCCC(=O)NO)nn4)cn1c23 10.4
C[C@H]1COc2c(N3CCN(C)CC3)c(F)cc3c(=O)c(C(=O)OCc4cn(CCCCCCC(=O)NO)nn4)cn1c23 8.5
C[C@H]1COc2c(N3CCN(C)CC3)c(F)cc3c(=O)c(C(=O)OCc4cn(CCCCCCC(=O)O)nn4)cn1c23 12.9

Prompt: Dear colleague, I am looking for the recorded IC50 of the following molecule: `C[C@H]1COc2c(N3CCN(C)CC3)c(F)cc3c(=O)c(C(=O)OCc4cn(CCCCCCCC(=O)O)nn4)cn1c23`
Completion: 15.8

Prompt: Dear colleague, I am looking for the recorded IC50 of the following molecule: `C[C@H]1COc2c(N3CCN(C)CC3)c(F)cc3c(=O)c(C(=O)NCc4cn(CCCCCCCC(=O)NO)nn4)cn1c23`
Completion: 8.7

###

- Tgt: human recombinant HDAC6 (Homo sapiens, UniProt Q9UBN7)
- Construct: purchased BPS Bioscience, CA
- Sequence (Q9UBN7 whole entry): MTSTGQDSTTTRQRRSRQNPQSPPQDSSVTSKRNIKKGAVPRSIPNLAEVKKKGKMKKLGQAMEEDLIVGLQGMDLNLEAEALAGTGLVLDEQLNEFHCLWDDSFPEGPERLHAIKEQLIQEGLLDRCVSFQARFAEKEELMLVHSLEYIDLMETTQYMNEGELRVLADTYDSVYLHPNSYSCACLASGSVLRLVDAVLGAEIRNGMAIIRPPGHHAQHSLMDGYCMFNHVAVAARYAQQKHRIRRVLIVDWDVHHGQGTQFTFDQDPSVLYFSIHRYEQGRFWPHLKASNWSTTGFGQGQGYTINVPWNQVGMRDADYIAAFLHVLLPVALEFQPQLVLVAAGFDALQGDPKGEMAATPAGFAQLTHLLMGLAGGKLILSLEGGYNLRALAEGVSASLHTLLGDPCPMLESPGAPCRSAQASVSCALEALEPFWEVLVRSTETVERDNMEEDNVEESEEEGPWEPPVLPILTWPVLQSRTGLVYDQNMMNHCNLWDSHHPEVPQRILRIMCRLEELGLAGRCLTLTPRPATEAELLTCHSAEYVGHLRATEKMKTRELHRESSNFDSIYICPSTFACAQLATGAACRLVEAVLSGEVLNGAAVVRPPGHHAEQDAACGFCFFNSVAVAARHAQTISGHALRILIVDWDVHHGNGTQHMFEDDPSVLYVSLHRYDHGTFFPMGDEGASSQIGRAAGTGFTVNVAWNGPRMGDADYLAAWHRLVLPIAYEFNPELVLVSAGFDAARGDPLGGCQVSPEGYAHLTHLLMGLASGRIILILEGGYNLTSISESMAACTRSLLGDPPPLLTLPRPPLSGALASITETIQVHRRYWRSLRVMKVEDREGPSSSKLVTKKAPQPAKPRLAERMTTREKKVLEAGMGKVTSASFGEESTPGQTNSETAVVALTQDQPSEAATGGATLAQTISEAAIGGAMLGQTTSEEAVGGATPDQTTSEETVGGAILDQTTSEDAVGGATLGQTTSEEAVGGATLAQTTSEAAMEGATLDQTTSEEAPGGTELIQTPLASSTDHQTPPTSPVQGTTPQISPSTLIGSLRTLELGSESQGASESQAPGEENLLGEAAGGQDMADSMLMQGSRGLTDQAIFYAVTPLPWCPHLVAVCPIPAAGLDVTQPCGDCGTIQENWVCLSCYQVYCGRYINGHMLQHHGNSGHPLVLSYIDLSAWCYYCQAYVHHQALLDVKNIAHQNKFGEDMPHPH
- Assay Method Text: HDAC activity assay (fluorogenic HDAC assay kit), HDAC6;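 note: underlying HDAC activity read as fluorescence, excitation 350 nm and emission 440 nm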
- Assay type: biochemical
- Particulars: human recombinant HDAC6, 37 °C, 30 min
Parameter: log10(IC50) (log10 of the value in nM)
Values below are the log10 of the recorded IC50, with nM as the unit.

Solved entries (count: 8):
Compound	log10(IC50)
C[C@H]1COc2c(N3CCN(C)CC3)c(F)cc3c(=O)c(C(=O)NCc4cn(CCCCCC(=O)NO)nn4)cn1c23 [Compound 9a]	1.69
C[C@H]1COc2c(N3CCN(C)CC3)c(F)cc3c(=O)c(C(=O)OCc4cn(CCCCCCC(=O)NO)nn4)cn1c23 [Compound 8b]	1.48
C[C@H]1COc2c(N3CCN(C)CC3)c(F)cc3c(=O)c(C(=O)NCc4cn(CCCCCCCC(=O)NO)nn4)cn1c23 [Compound 9c]	1.61
C[C@H]1COc2c(N3CCN(C)CC3)c(F)cc3c(=O)c(C(=O)NCc4cn(CCCCCCCC(=O)O)nn4)cn1c23 [Compound 7c]	3.43
C[C@H]1COc2c(N3CCN(C)CC3)c(F)cc3c(=O)c(C(=O)NCc4cn(CCCCCCC(=O)NO)nn4)cn1c23 [Compound 9b]	1.32
C[C@H]1COc2c(N3CCN(C)CC3)c(F)cc3c(=O)c(C(=O)NCc4cn(CCCCCCC(=O)O)nn4)cn1c23 [Compound 7b]	3.04
C[C@H]1COc2c(N3CCN(C)CC3)c(F)cc3c(=O)c(C(=O)OCc4cn(CCCCCCC(=O)O)nn4)cn1c23 [Compound 6b]	3.15
C[C@H]1COc2c(N3CCN(C)CC3)c(F)cc3c(=O)c(C(=O)NCc4cn(CCCCCC(=O)O)nn4)cn1c23 [Compound 7a]	3.28

Prompt: Dear colleague, I am looking for the recorded log10(IC50) of the following compound: C[C@H]1COc2c(N3CCN(C)CC3)c(F)cc3c(=O)c(C(=O)OCc4cn(CCCCCCCC(=O)O)nn4)cn1c23 [Compound 6c]
Completion: 3.67

Prompt: Dear colleague, I am looking for the recorded log10(IC50) of the following compound: C[C@H]1COc2c(N3CCN(C)CC3)c(F)cc3c(=O)c(C(=O)OCc4cn(CCCCCCCC(=O)NO)nn4)cn1c23 [Compound 8c]
Completion: 1.72
